# Test system: CAKI-1
# TEST DESCRIPTION: NCI tumour cell line growth inhibition, 48 h
Calls of active or inactive are those of the source. Rule as the data show it: active = GI50 up to about 1.1 µM and inactive = higher.
Permitted responses: True for active, False for inactive

Input line: Which result was noted for this compound in the test: C=CCC(O)c1cc(OC)ccc1OC (configuration not stated)
Output line: False

Input line: Which result was noted for this compound in the test: O=C1C=CC2(C=C1)CCC(=O)O2
Output line: False

Input line: Which result was noted for this compound in the test: O=C1Nc2c(ccc(Cl)c2I)C1=O
Output line: False

Input line: Which result was noted for this compound in the test: CC(=O)CC(=O)c1cc2c(=O)oc(C)cc2oc1=O
Output line: False

Input line: Which result was noted for this compound in the test: C=CCOc1cc(NC(=S)c2ccoc2C)ccc1OC
Output line: False

Input line: Which result was noted for this compound in the test: CCN(CCCl)c1cc(CN(C)C)cc(NC(=O)c2ccc(C(=O)Nc3cccc(N(CCCl)NN)c3)cc2)c1
Output line: True

Input line: Which result was noted for this compound in the test: Cc1ccc(NC(=O)C(Cc2c[nH]c3ccccc23)NC(=O)Oc2ccccc2)cc1C (configuration not stated)
Output line: False

Input line: Which result was noted for this compound in the test: N#CC1CCCCCCCCCCC(=O)N(CCCl)C1=O (configuration not stated)
Output line: False

Input line: Which result was noted for this compound in the test: O=C(c1ccco1)n1c2ccc(Br)cc2c2nc3ccccc3nc21
Output line: False

Input line: Which result was noted for this compound in the test: O=C(O)C1=Cc2cccc3cccc(c23)C1=O
Output line: False

Input line: Which result was noted for this compound in the test: COc1ccc(N2C(=O)CC(c3c[nH]c4ncccc34)C2=O)cc1 (configuration not stated)
Output line: False

Input line: Which result was noted for this compound in the test: CC(O)c1ccc[n+](Cc2ccccc2)c1 (configuration not stated)
Output line: False

Input line: Which result was noted for this compound in the test: CCN(CC)C(=O)Cn1c(C)cc2ccccc21
Output line: False

Input line: Which result was noted for this compound in the test: NC(=O)C(=CNC(=S)Nc1ccc(Cl)c(Cl)c1)C(N)=O
Output line: False

Input line: Which result was noted for this compound in the test: C=C(C)[C@H]1C=C[C@@H](OC(C)=O)[C@@]2(COC(C)=O)[C@H](OC(=O)CCC)[C@H]3[C@@H](OC(C)=O)[C@@H](C)C[C@]3(O)C(=O)[C@@](C)(OC(C)=O)[C@H]12
Output line: False

Input line: Which result was noted for this compound in the test: O=C1NC(=S)NC(=O)C1=Cc1cccc2cc3ccccc3cc12
Output line: False

Input line: Which result was noted for this compound in the test: COc1cc(CNc2nc3cc(C(F)(F)F)ccc3nc2C)cc(OC)c1OC
Output line: False

Input line: Which result was noted for this compound in the test: O=C1c2ccccc2-n2c1nc1ccccc1c2=O [TRYPTANTHRIN]
Output line: False

Input line: Which result was noted for this compound in the test: O=C(O)/C(Cl)=C(Cl)/C=N/NC(=O)c1cc2ccccc2cc1O
Output line: False

Input line: Which result was noted for this compound in the test: C[C@H](O)C(=O)SC[C@H](NC(=O)CC[C@@H](N)C(=O)O)C(=O)NCC(=O)O
Output line: False

Input line: Which result was noted for this compound in the test: N#Cc1c(C#N)c(-c2ccccc2)n(-c2ccccc2)c1N
Output line: False

Input line: Which result was noted for this compound in the test: O=C1C[C@H](Sc2ccccc2)C2(OCCO2)[C@@H](Sc2ccccc2)C1
Output line: False
